# target: Estrogen receptor (Homo sapiens) (UniProt P03372)
# Sequence (P03372 whole entry): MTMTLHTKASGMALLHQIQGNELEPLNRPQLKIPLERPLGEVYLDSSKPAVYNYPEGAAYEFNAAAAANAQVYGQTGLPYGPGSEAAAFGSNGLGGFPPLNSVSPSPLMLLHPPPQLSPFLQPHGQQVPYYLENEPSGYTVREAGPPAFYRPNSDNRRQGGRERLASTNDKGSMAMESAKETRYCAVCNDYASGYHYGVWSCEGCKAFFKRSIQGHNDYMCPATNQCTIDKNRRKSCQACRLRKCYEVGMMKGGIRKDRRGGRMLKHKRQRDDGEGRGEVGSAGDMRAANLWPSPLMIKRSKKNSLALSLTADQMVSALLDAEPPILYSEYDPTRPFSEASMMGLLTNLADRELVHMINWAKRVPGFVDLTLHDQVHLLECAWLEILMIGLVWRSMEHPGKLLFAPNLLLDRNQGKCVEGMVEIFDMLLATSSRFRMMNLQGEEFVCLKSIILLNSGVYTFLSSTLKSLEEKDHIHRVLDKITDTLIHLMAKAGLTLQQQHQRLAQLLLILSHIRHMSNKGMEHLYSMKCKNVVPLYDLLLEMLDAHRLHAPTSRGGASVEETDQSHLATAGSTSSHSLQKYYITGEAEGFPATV
# procedure.text: Downregulation of ERalpha expression in human MCF7 cells at 10 uM after 6 hrs by Western blot method relative to beta-actin
# Type: cell-based
metric: Activity (%)

smiles.structure: CCCCCCCCOc1ccc(C(CCC)(CCC)c2ccc(O)c(C)c2)cc1C
unit.tag: %
number: 105
//
smiles.structure: CCCCCCNCCOc1ccc(C(CCC)(CCC)c2ccc(O)c(C)c2)cc1C
unit.tag: %
number: 112
//
smiles.structure: CCCCOc1ccc(C(CCC)(CCC)c2ccc(O)c(C)c2)cc1C
unit.tag: %
number: 68
//
smiles.structure: CCCC(CCC)(c1ccc(O)c(C)c1)c1ccc(OCC)c(C)c1
unit.tag: %
number: 87
